Attribute: IC50
Tested on: 697B cells, BCR-induced NF-kB luciferase reporter luminescence
Assay: inhibitors of BCR-induced NF-kB activation, dose response, 697B cells, luciferase luminescence (AID 489023)
The source made the active and inactive calls. No rule for the calls is given here.

Molecule | IC50
COc1cccc(/C=C2\SC(=S)N(CCCC(=O)NC3=NCCS3)C2=O)c1 | 56.3 µM (inactive)
COc1ccc(/C=C2/SC(=S)N(CCCC(=O)Nc3cccc(O)c3)C2=O)cc1 | 3.88 µM
CCOc1cc(/C=N\Nc2nc(Nc3ccccc3)nc(N3CCOCC3)n2)ccc1OC(=O)c1ccco1 | 1.25 µM
CCN1C(=O)c2cccc3c(S(=O)(=O)N4CCC(C)CC4)ccc1c23 | 49.3 µM (inactive)
O=C(Nc1nc2nc(-c3ccccc3)cc(-c3ccccc3)n2n1)c1ccco1 | 48.3 µM (inactive)
CC1(c2nnc(-c3cccc(Cl)c3)o2)CC(c2cccc(Cl)c2)=NO1 (stereo not given) | > 80 µM (inactive)
CCN(CC)CCCN=Cc1c(-c2ccccc2)[nH]n(-c2nc3ccccc3s2)c1=O | 17.9 µM
CC(=O)c1cn(CCOc2cc(C)ccc2C)c2ccccc12 | > 80 µM (inactive)
COc1cc(NC(=O)c2cc3c(C)nc4ccccc4c3o2)cc(OC)c1OC | 14.1 µM
CCn1c(=O)cc(SCC(=O)N2CCN(C)CC2)c2ccccc21 | > 80 µM (inactive)

----------
Attribute: IC50
Tested on: 697B cells, BCR-induced NF-kB luciferase reporter luminescence
Test: inhibitors of BCR-induced NF-kB activation, dose response, 697B cells, luciferase luminescence (AID 489023)
Calls of active or inactive are those of the source. The rule behind the calls is not given here.

Smiles entry | IC50
COc1ccc(/C=C2/SC(=S)N(CCCC(=O)Nc3ccc(O)cc3)C2=O)cc1 | 0.44 µM
COc1ccc(NC(=O)c2cc(-c3ccccn3)nc3ccccc23)cc1S(=O)(=O)N(C)C | 7.8 µM
Cc1ccc(/C=C2\SC(=S)N(CCCC(=O)NC3CCCC3)C2=O)cc1 | 1.13 µM
CCOC(=O)C1CCN(c2ncnc3c2cnn3-c2ccc(Cl)cc2)CC1 | 0.82 µM
COc1ccc(C(=O)Nc2ccc(OC)c([N+](=O)[O-])c2)cc1Br | > 80 µM (inactive)
COc1ccc(-c2ccc(C(C)=O)cc2)cc1[C@H]1[C@H]2C=CC[C@@H](C)[C@@H]2C(=O)N1Cc1ccccc1 | > 80 µM (inactive)
COc1cc(-c2nc3ccc(N4CCN(C)CC4)cc3[nH]2)cc(OC)c1OC | > 80 µM (inactive)
COc1ccc(-c2nn(C)c(=O)c3ccccc23)cc1NS(C)(=O)=O | 39.9 µM (inactive)
COc1ccc(-c2noc(CCCC(=O)Nc3ccc(C(N)=O)cc3)n2)cc1 | 8.71 µM
CN(C)c1cc[n+](Cc2c(Cl)cccc2Cl)cc1 | > 80 µM (inactive)
CCc1ccc(/C=C2/SC(=S)N(CCC(=O)Nc3ccc(C(=O)O)cc3)C2=O)cc1 | 4.07 µM
CC(C)c1ccc(/C=C2\SC(=S)N(CCC(=O)NCCCn3ccnc3)C2=O)cc1 | 16.6 µM
O=C1NC[C@H](c2ccccc2)OC(=O)[C@@H](Cc2ccc(F)cc2)C/C=C\C[C@H]1CC(=O)N(CCO)Cc1ccccc1 | 9.87 µM
O=C(Nc1nc(-c2ccccc2)cs1)c1ccccc1NS(=O)(=O)c1ccc(F)cc1 | 21.7 µM (inactive)
COc1ccc(Cc2nc(-c3ccc(NC(=O)c4cccnc4)cc3)no2)cc1 | > 80 µM (inactive)
COC(=O)CSc1nnc(-c2sc3ccccc3c2Cl)o1 | 10.3 µM
COc1ccc(C(=O)Nc2cccc(NC(=O)c3ccc(OC)c(OC)c3)n2)cc1OC | 3.64 µM
COc1ccc2nc(Sc3c([N+](=O)[O-])nc(C)n3Cc3ccccc3)[nH]c2c1 | 18.2 µM
COCCNC(=O)CSCc1nc(-c2ccc(SC)cc2)oc1C | 4.56 µM
COc1ccc(-c2csc3nc(-c4cccnc4)nc(N4CCC(C(N)=O)CC4)c23)cc1OC | 44.2 µM (inactive)
